Values compiled from ChEMBL document CHEMBL1687894.

Molecular target: UniProtKB Q9N6S8
Sequence (Q9N6S8 whole entry): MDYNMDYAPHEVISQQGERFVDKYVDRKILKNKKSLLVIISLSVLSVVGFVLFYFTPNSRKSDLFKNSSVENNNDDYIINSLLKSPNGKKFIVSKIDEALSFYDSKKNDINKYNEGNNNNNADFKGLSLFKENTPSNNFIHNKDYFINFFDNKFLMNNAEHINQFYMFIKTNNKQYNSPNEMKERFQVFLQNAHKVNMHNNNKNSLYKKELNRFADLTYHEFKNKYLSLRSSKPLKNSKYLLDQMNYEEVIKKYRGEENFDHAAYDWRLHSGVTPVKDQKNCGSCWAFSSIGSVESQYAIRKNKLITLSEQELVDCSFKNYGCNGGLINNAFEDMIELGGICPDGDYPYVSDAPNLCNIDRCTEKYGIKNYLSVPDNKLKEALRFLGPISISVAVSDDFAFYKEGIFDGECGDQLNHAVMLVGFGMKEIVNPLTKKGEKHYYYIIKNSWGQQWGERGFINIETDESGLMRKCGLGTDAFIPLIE
pIC50: −log10 of the molar value.
ENDPOINT NAME: pIC50

The measured pIC50 associated with `O=C1Nc2ccc(Cl)cc2C1=CNCCCNc1ccnc2cc(Cl)ccc12` reads < 4.30

Can you give me pIC50 for all of these, one by one?
1. CC(C)CCNC(=O)[C@H](CC(C)C)NC=C1C(=O)Nc2cc(Cl)ccc21
2. CN(C)C=C1C(=O)Nc2cc(Cl)ccc21
3. CCOC(=O)CNC=C1C(=O)Nc2ccccc21
4. CC(C)CCNC(=O)[C@H](CC(C)C)NC=C1C(=O)N(C)c2ccccc21
5. O=C1Nc2ccccc2C1=CNc1ccccc1

[4.31, "< 4.30", "< 4.30", "< 4.30", "< 4.30"]

---

Falcipain 2 (Plasmodium falciparum, UniProt Q9N6S8) data, read-out IC50

Answered cases to consult:
Here `O=C1Nc2ccccc2C1=CNCCCNc1ccnc2cc(Cl)ccc12` was tested on Falcipain 2 (Plasmodium falciparum, UniProt Q9N6S8), and its IC50 came to > 50 µM

Here `CN(C)C=C1C(=O)Nc2c(Cl)cccc21` was tested on Falcipain 2 (Plasmodium falciparum, UniProt Q9N6S8), and its IC50 came to > 50 µM

Here `CC(C)CCNC(=O)[C@H](CC(C)C)NC=C1C(=O)Nc2c(Cl)cccc21` was tested on Falcipain 2 (Plasmodium falciparum, UniProt Q9N6S8), and its IC50 came to 42.1 µM

Here `CCOC(=O)[C@H](Cc1ccccc1)NC=C1C(=O)Nc2ccccc21` was tested on Falcipain 2 (Plasmodium falciparum, UniProt Q9N6S8), and its IC50 came to > 50 µM

Here `CC(C)CCNC(=O)[C@H](CC(C)C)NC=C1C(=O)Nc2ccccc21` was tested on Falcipain 2 (Plasmodium falciparum, UniProt Q9N6S8), and its IC50 came to > 50 µM

Here `CC(C)C[C@H](NC(=O)[C@H]1O[C@@H]1C(=O)O)C(=O)NCCCCN=C(N)N` was tested on Falcipain 2 (Plasmodium falciparum, UniProt Q9N6S8), and its IC50 came to 0.112 µM

Here `CC(C)CCNC(=O)[C@H](CCc1ccccc1)NC=C1C(=O)Nc2ccccc21` was tested on Falcipain 2 (Plasmodium falciparum, UniProt Q9N6S8), and its IC50 came to 49.9 µM

Here `O=C1Nc2ccccc2C1=CSCc1ccccc1` was tested on Falcipain 2 (Plasmodium falciparum, UniProt Q9N6S8), and its IC50 came to > 50 µM

Here `CN(C)C=C1C(=O)N(C)c2ccccc21` was tested on Falcipain 2 (Plasmodium falciparum, UniProt Q9N6S8), and its IC50 came to > 50 µM

Here `CN(C)C=C1C(=O)Nc2ccc(Cl)cc21` was tested on Falcipain 2 (Plasmodium falciparum, UniProt Q9N6S8), and its IC50 came to > 50 µM

Can you give me IC50 for all of these, one by one?
1. CN(C)C=C1C(=O)Nc2ccccc21
2. CC(C)CCNC(=O)CNC=C1C(=O)Nc2ccccc21
3. O=C1Nc2c(Cl)cccc2C1=CNCCCNc1ccnc2cc(Cl)ccc12
4. O=C1Nc2cc(Cl)ccc2C1=CNCCCNc1ccnc2cc(Cl)ccc12

1: > 50 µM; 2: > 50 µM; 3: > 50 µM; 4: > 50 µM

Can you give me IC50 for all of these, one by one?
1. CC(C)CCNC(=O)[C@H](CCc1ccccc1)NC=C1C(=O)Nc2c(Cl)cccc21
2. CN1C(=O)C(=CNCCCNc2ccnc3cc(Cl)ccc23)c2ccccc21
3. CC(C)CCNC(=O)[C@H](CC(C)C)NC=C1C(=O)Nc2ccc(Cl)cc21
4. CC(C)CCNC(=O)[C@H](Cc1ccccc1)NC=C1C(=O)Nc2ccc(Cl)cc21

["44 µM", "> 50 µM", "44.1 µM", "43.3 µM"]
